B1: LINE1-mini (parent)
chain: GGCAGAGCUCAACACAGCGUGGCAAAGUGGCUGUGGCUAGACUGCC

Variants of: B1
Assay: self-cleavage, relative activity (ratio to wild type); higher = more cleavage; in vitro, sequencing; the parent is a self-cleaving ribozyme
Quick reference for self-cleavage among some variants
Readout: self-cleavage

# Variant Key, Readout, Endpoint Result
measured = [
    ("A39U G44U", "self-cleavage", 0.12),
    ("A11C G22A", "self-cleavage", 0.12),
    ("G17C A25U", "self-cleavage", 0.87),
    ("G1U C10G", "self-cleavage", 0.03),
    ("A41G C46U", "self-cleavage", 0.16),
    ("C37A C42U", "self-cleavage", 0.16),
    ("A26C C37U", "self-cleavage", 0.07),
    ("C13U G30C", "self-cleavage", 0.09),
    ("G5U G33U", "self-cleavage", 0.05),
    ("C13G A25U", "self-cleavage", 0.44),
    ("G27U G35U", "self-cleavage", 0.24),
    ("U32G G44C", "self-cleavage", 0.06),
    ("U9G G36A", "self-cleavage", 0.61),
    ("A11C A12C", "self-cleavage", 0.02),
    ("G1U", "self-cleavage", 0.33),
    ("C13A C42A", "self-cleavage", 0.09),
    ("U9C U20C", "self-cleavage", 0.02),
    ("G21U G44A", "self-cleavage", 0.53),
    ("C31A C46A", "self-cleavage", 0.13),
    ("G17C C31G", "self-cleavage", 0.14),
    ("G27C G30A", "self-cleavage", 1.2),
    ("A12G A25C", "self-cleavage", 0.16),
    ("A6U G29U", "self-cleavage", 0.66),
    ("A39U G44C", "self-cleavage", 0.09),
    ("A25U U43G", "self-cleavage", 0),
    ("G17U G35U", "self-cleavage", 0.07),
    ("A26C G33U", "self-cleavage", 0.08),
    ("C13A C15U", "self-cleavage", 0.12),
    ("G5A C15A", "self-cleavage", 0.1),
    ("U9C G44U", "self-cleavage", 0.02),
    ("C18G G30U", "self-cleavage", 0.62),
    ("C8G A12C", "self-cleavage", 0.02),
    ("G17U C31U", "self-cleavage", 0.11),
    ("C13U G21A", "self-cleavage", 0.22),
    ("G5C C45U", "self-cleavage", 0.06),
    ("A24U C37U", "self-cleavage", 0.07),
    ("G40U C45U", "self-cleavage", 0.15),
    ("C23A C31U", "self-cleavage", 0.45),
    ("A11U U43G", "self-cleavage", 0),
    ("C23U G30U", "self-cleavage", 1.38),
    ("A14U C23U", "self-cleavage", 0.31),
    ("A4U G29C", "self-cleavage", 0.24),
    ("U32A A41C", "self-cleavage", 0.07),
    ("G30A A39U", "self-cleavage", 1.69),
    ("C18A G29U", "self-cleavage", 1.07),
    ("G33A C37G", "self-cleavage", 0.04),
    ("G27U C37U", "self-cleavage", 0.07),
    ("C8U A11U", "self-cleavage", 0.03),
    ("A12U U38G", "self-cleavage", 0.02),
    ("C3G C31G", "self-cleavage", 0.07),
    ("U9G G21C", "self-cleavage", 0.08),
    ("G2U C31G", "self-cleavage", 0.03),
    ("A25U U32C", "self-cleavage", 0.27),
    ("C8U G30A", "self-cleavage", 0.24),
    ("A41G U43G", "self-cleavage", 0.05),
    ("G1C C15U", "self-cleavage", 0.07),
    ("C13U C15A", "self-cleavage", 0.08),
    ("A25G G30C", "self-cleavage", 1.19),
    ("C37G C45U", "self-cleavage", 0.03),
    ("C18A C46G", "self-cleavage", 0.47),
    ("A11C A24G", "self-cleavage", 0.06),
    ("A11C U32A", "self-cleavage", 0.04),
    ("C13G G30C", "self-cleavage", 0.12),
    ("A11C G29C", "self-cleavage", 0.05),
    ("C18U G30C", "self-cleavage", 1.82),
    ("U32A C42G", "self-cleavage", 0.06),
    ("A41G C45A", "self-cleavage", 0.09),
    ("G1A A39G", "self-cleavage", 0.12),
    ("C10U G19U", "self-cleavage", 0.21),
    ("A6C A26C", "self-cleavage", 0.48),
    ("A16U G22A", "self-cleavage", 0.42),
    ("A39U G40A", "self-cleavage", 0.17),
    ("A24C A25U", "self-cleavage", 1.01),
    ("C3U A41U", "self-cleavage", 0.56),
    ("C8A A11C", "self-cleavage", 0.05),
    ("C13G U20G", "self-cleavage", 0.13),
    ("G17C U32C", "self-cleavage", 0.14),
    ("U32C G40A", "self-cleavage", 0.06),
    ("A11U U34A", "self-cleavage", 0.04),
    ("C37G C45G", "self-cleavage", 0.08),
    ("C10U C23G", "self-cleavage", 0.26),
    ("G2U A14G", "self-cleavage", 0.08),
    ("A12C A24G", "self-cleavage", 0.04),
    ("G1C A26C", "self-cleavage", 0.08),
    ("G21U C23G", "self-cleavage", 0.9),
    ("G7C A25C", "self-cleavage", 0.14),
    ("C15A C46G", "self-cleavage", 0.05),
    ("C31G C45A", "self-cleavage", 0.04),
    ("C13U C42U", "self-cleavage", 0.09),
    ("U38C C46A", "self-cleavage", 1.27),
    ("G2U A39U", "self-cleavage", 0.04),
]
